Origin of measurements: patent US20220380378A1

# SYSTEM: androgen receptor (AR) (Homo sapiens, UniProt P10275, T878A)
# METHOD NOTES: Androgen-induced PSA (6.1 kb)-luciferase reporter assay in LNCaP cells (R1881 1 nM)
# Assay type: cell-based
# Parameters: endogenous in cells; host or cells: LNCaP
# CONDITION PARAMETERS: 24 h, read-out: PSA-Luc IC50 Range
RESULT TYPE: IC50

CC(C)(c1ccc(OCc2ccnc(NS(C)(=O)=O)n2)cc1)c1cc(Cl)c(-c2cccc(Cl)c2)c(C#N)c1 :: > 2 µM
CC(C)(c1ccc(-c2ccc3nc(NS(C)(=O)=O)cnc3c2)cc1)c1cc(Cl)c(OCCCl)c(C#N)c1 :: < 0.5 µM
CC(C)(c1ccc(-c2cnc3c(c2)OCCN3S(C)(=O)=O)cc1)c1cc(Cl)c(OCCCl)c(C#N)c1 :: 0.5 to 2 µM
CS(=O)(=O)NC1(CCOc2ccc3c(ccn3-c3cc(Cl)c(OCCCl)c(C#N)c3)c2)CC1 :: 0.5 to 2 µM
CS(=O)(=O)NC1CCN(Cc2ccc3c(ccn3-c3cc(Cl)c(OCCCl)c(C#N)c3)c2)CC1(F)F (stereo not shown) :: 0.5 to 2 µM
CS(=O)(=O)Nc1nccc(COc2ccc3c(-c4cc(Cl)c(OCCCl)c(C#N)c4)cccc3c2)n1 :: 0.5 to 2 µM

Alright, here's another molecule for you.
## Task Which measured IC50 value corresponds to CC(C)(c1ccc(-c2ccc3c(NS(C)(=O)=O)ncnc3c2)cc1)c1cc(Cl)c(OCCCl)c(C#N)c1 ?
## Result > 2 µM

* * *

# SYSTEM: androgen receptor (AR) (Homo sapiens, UniProt P10275, T878A)
# Sequence (P10275 1-920 T878A): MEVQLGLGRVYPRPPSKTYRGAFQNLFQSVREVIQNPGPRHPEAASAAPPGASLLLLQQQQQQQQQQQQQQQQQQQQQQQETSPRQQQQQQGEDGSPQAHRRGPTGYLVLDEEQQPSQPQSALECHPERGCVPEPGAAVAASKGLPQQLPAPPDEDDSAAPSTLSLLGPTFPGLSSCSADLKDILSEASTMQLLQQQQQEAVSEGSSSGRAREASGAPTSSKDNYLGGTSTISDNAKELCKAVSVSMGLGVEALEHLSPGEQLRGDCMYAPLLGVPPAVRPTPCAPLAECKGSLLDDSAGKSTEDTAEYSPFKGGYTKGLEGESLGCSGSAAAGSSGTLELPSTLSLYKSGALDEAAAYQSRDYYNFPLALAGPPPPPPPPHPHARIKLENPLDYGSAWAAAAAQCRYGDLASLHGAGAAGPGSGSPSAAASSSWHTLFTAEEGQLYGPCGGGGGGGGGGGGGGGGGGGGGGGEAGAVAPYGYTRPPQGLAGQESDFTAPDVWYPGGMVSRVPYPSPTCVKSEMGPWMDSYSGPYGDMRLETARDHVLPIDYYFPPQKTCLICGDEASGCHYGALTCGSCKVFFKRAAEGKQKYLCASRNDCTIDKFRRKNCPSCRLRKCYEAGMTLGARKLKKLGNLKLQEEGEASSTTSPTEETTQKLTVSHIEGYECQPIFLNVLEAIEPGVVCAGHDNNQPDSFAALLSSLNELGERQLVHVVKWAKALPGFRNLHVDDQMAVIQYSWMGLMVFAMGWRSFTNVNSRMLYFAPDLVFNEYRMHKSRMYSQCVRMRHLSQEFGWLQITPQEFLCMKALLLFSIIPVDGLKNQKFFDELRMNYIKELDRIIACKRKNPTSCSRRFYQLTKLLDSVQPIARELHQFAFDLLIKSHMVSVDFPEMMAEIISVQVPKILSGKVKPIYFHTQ
# METHOD NOTES: Androgen-induced PSA (6.1 kb)-luciferase reporter assay in LNCaP cells (R1881 1 nM)
# Format: cell-based
# Parameters: endogenous in cells; host or cells: LNCaP
# CONDITION PARAMETERS: 24 h, read-out: PSA-Luc IC50 Range
pIC50: −log10 of the molar value.
Here, each record is paired with measured pIC50 data.

// below: answered molecules
CN(C1CCN(Cc2ccc3c(ccn3-c3cc(Cl)c(OCCCl)c(C#N)c3)c2)CC1)S(C)(=O)=O :: < 5.70
CC(C)(c1ccc(-c2ccn3c(S(C)(=O)=O)c(N)nc3c2)cc1)c1cc(Cl)c(OCCCl)c(C#N)c1 :: < 5.70
CC(C)(c1ccc(OCc2ccnc(NS(C)(=O)=O)n2)cc1)c1cnc(N2CC3(CCC3)C2)c(C#N)c1 :: < 5.70

Alright, here's another molecule for you.
## Task Param readout = pIC50; param system = androgen receptor (AR) (Homo sapiens, UniProt P10275, T878A); param query = CS(=O)(=O)Nc1nccc(OC2CCN(C(=O)c3cc(Cl)c(OCCCl)c(C#N)c3)CC2)n1 ; response: value
## Result < 5.70

* * *

# SYSTEM: androgen receptor (AR) (Homo sapiens, UniProt P10275, T878A)
# METHOD NOTES: Androgen-induced PSA (6.1 kb)-luciferase reporter assay in LNCaP cells (R1881 1 nM)
# Type: cell-based
# Design: endogenous in cells; host or cells: LNCaP
# CONDITION PARAMETERS: 24 h, read-out: PSA-Luc IC50 Range
Here, each record is paired with measured IC50 data.

// below: answered molecules
CC(C)(c1ccc(-c2cnc3nc(NS(C)(=O)=O)cnc3c2)cc1)c1cc(Cl)c(OCCCl)c(C#N)c1 [Compound A219] :: 500 to 2000 nM
CS(=O)(=O)Nc1cc(NCc2ccc3c(ccn3-c3cc(Cl)c(OCCCl)c(C#N)c3)c2)ccn1 :: > 2000 nM
CS(=O)(=O)Nc1ncc2cc(-c3ccc4c(ccn4-c4cc(Cl)c(OCCCl)c(C#N)c4)c3)ccc2n1 :: > 2000 nM

Alright, here's another molecule for you.
## Task Which measured IC50 value corresponds to CC1CN(c2c(F)cc(C(C)(C)c3ccc(OCc4ccnc(NS(C)(=O)=O)n4)cc3)cc2C#N)C1 ?
## Result 500 to 2000 nM

* * *

Here, each record is paired with measured pIC50 data.
# SYSTEM: androgen receptor (AR) (Homo sapiens, UniProt P10275, T878A)
# METHOD NOTES: Androgen-induced PSA (6.1 kb)-luciferase reporter assay in LNCaP cells (R1881 1 nM)
# Format: cell-based
# Design: endogenous in cells; host or cells: LNCaP
# CONDITION PARAMETERS: 24 h, read-out: PSA-Luc IC50 Range
pIC50: −log10 of the molar value.

CS(=O)(=O)N1CCN(CCOc2ccc3c(ccn3-c3cc(Cl)c(OCCCl)c(C#N)c3)c2)CC1 :: 5.70 to 6.30
CC(C)(c1ccc(-c2ccc3c(c2)OCC(CNS(C)(=O)=O)O3)cc1)c1cc(Cl)c(OCCCl)c(C#N)c1 (stereo not shown) :: < 5.70

## Task Param readout = pIC50; param system = androgen receptor (AR) (Homo sapiens, UniProt P10275, T878A); param query = CS(=O)(=O)N1CC(COc2ccc3c(ccn3-c3cc(Cl)c(OCCCl)c(C#N)c3)c2)C1 ; response: value
## Result > 6.30

## Task What would you report for CS(=O)(=O)Nc1nccc(COc2ccc3c(c2)CCC3c2cc(Cl)c(OCCCl)c(C#N)c2)n1 (stereo not shown) ?
## Result 5.70 to 6.30

## Task What would you report for CS(=O)(=O)NC12CC(COc3ccc4c(-c5cc(Cl)c(OCCCl)c(C#N)c5)csc4c3)(C1)C2 ?
## Result < 5.70

## Task What would you report for Cn1nc(NC(=O)C(F)(F)F)cc1COc1ccc(C(C)(C)c2cc(Cl)c(OCCCl)c(C#N)c2)cc1 ?
## Result 5.70 to 6.30

* * *

# SYSTEM: androgen receptor (AR) (Homo sapiens, UniProt P10275, T878A)
# Sequence (P10275 1-920 T878A): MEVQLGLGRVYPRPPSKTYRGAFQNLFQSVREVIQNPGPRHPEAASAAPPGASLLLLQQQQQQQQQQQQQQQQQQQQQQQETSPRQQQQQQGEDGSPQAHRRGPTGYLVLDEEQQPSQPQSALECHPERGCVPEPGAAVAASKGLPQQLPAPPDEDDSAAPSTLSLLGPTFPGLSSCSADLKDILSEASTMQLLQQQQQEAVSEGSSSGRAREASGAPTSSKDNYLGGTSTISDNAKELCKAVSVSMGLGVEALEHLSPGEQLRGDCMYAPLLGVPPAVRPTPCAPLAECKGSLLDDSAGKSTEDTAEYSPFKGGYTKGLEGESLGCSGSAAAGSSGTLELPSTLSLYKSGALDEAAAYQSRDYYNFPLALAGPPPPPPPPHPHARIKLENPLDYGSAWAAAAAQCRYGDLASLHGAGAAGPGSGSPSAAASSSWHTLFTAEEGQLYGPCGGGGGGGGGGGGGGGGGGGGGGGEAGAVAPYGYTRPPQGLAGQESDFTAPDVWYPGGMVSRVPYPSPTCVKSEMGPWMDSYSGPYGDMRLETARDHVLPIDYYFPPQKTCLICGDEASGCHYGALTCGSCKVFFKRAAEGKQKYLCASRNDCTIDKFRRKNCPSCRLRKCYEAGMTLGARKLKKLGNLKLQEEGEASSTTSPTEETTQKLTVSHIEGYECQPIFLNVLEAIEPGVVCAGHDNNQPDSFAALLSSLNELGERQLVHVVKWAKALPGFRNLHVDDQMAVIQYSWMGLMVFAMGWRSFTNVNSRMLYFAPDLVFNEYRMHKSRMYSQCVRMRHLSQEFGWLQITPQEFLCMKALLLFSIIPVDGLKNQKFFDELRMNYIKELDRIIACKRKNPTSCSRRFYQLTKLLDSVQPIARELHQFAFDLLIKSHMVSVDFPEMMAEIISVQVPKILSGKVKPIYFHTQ
# METHOD NOTES: Androgen-induced PSA (6.1 kb)-luciferase reporter assay in LNCaP cells (R1881 1 nM)
# Type: cell-based
# Parameters: endogenous in cells; host or cells: LNCaP
# CONDITION PARAMETERS: 24 h, read-out: PSA-Luc IC50 Range
Here, each record is paired with measured IC50 data.

// below: answered compounds
CC(C)(c1ccc(-c2ccc3oc(NS(C)(=O)=O)nc3c2)cc1)c1cc(Cl)c(OCCCl)c(C#N)c1 [Compound A255] :: 500 to 2000 nM
CS(=O)(=O)N1CCCC(COc2ccc3c(ccn3-c3cc(Cl)c(OCCCl)c(C#N)c3)c2)C1 (centres unmarked) [Compound A56] :: 500 to 2000 nM
CS(=O)(=O)N1CCCC(Oc2ccc3c(ccn3-c3cc(Cl)c(OCCCl)c(C#N)c3)c2)CC1 (centres unmarked) [Compound A202] :: > 2000 nM
CS(=O)(=O)NC1CCN(CCOc2ccc3c(ccn3-c3cc(Cl)c(OCCCl)c(C#N)c3)c2)CC1 [Compound A220] :: > 2000 nM
CS(=O)(=O)Nc1ncc2c(n1)CN(Cc1ccc3c(ccn3-c3cc(Cl)c(OCCCl)c(C#N)c3)c1)CC2 [Compound A153] :: > 2000 nM

## Task Which measured IC50 value corresponds to CS(=O)(=O)Nc1nccc(COc2ccc3c(c2)CCC=C3c2cc(Cl)c(OCCCl)c(C#N)c2)n1 [Compound A32] ?
## Result 500 to 2000 nM

## Task What would you report for CC(C)(c1ccc(-c2cnc3nc(NS(C)(=O)=O)ccc3c2)cc1)c1cc(Cl)c(OCCCl)c(C#N)c1 [Compound A194] ?
## Result < 500 nM

## Task What would you report for CC(Oc1ccc2c(ccn2-c2cc(Cl)c(OCCCl)c(C#N)c2)c1)C12CC(NS(C)(=O)=O)(C1)C2 (centres unmarked) [Compound A180] ?
## Result 500 to 2000 nM

## Task What would you report for CS(=O)(=O)N1CCC(COc2ccc3c(ccn3-c3cc(Cl)c(OCCCl)c(C#N)c3)c2)C1 (centres unmarked) [Compound A210] ?
## Result 500 to 2000 nM
